Assay: Plasma pharmacokinetics, QD and BID cohorts (non-compartmental)
Type: in vivo, human
Conditions: human, plasma, oral, 110 mg, 110 mg BID, C1D1, median, n=3, plasma; read-out: Cmax
Measurement name: Cmax (µg/mL)

INSERT INTO results (structure_notation, measurement_name, measured) VALUES
  ('Nc1ncc(-c2cnn(C3CCNCC3)c2)cc1-c1nnc(CC2CC2)o1', 'Cmax', 0.0931);

###

Experiment: Plasma pharmacokinetics, QD and BID cohorts (non-compartmental)
Format: in vivo, human
Details: human, plasma, oral, 175 mg, QD; C1D1; plasma; n 1; read-out: AUC0–12, Median
Measurement name: AUC

INSERT INTO results (structure_notation, measured) VALUES
  ('Nc1ncc(-c2cnn(C3CCNCC3)c2)cc1-c1nnc(CC2CC2)o1', '1500 ng·h/mL');
